Kindly state composite z-score for each of the entries shown.
assay: binders of probe aFGF10 on microarray, primary screen, stem cell growth factor project, biochemical, small-molecule microarray, fluorescence 635/667 (AID 1071); settings: higher = more signal;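 also: score merges 667 nm spot intensity and signal to noise from triplicate slides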
One number for each entry.

Some molecules with known composite z-score results, for comparison:
[[record]]
molecule = "C=C(COC)/C(=C/C[C@@H](OC(C)=O)c1ccccc1OCCO)c1cc(C(=O)OC)ccc1OC"
recorded_number = 0.785

[[record]]
molecule = "C=C(CCCC)C(=O)CC[C@H](OC(=O)c1cccnc1)c1ccc(CO)o1"
recorded_number = 0.797

[[record]]
molecule = "COC(=O)C1=CC(CCCO)=CC(C2CC2)N(Cc2cccc(OC(F)(F)F)c2)C=C1C(=O)OC (stereo not given)"
recorded_number = 0.216

[[record]]
molecule = "CCOC(=O)C1=C[C@@H](C(C)(C)C)N(S(=O)(=O)c2ccc(C)cc2)[C@H]1c1ccccc1Cl"
recorded_number = 0.624


# next molecule below
composite z-score for C=CCC(OC(C)=O)[C@@H]1[C@@H](N(Cc2ccc(-c3ccccc3)cc2)C(=O)c2ccc(-c3ccccc3)cc2)c2cc(OCCCO)ccc2N1C(=O)c1ccc2ccccc2n1 (stereo not given in full) is 0.0767
